test system: mu opiate receptor (MOR); assay: MOR agonist activity using [35S]GTPγS binding assay in striatal membranes; assay type: biochemical; conditions: Series B; 1 μM compound; [35S]GTPγS binding to Gαo, striatal membranes
Measure name: MOR agonist activity, percent [35S]GTPγS binding at the stated compound concentration (%)
Numeric only. Scale: %

Would you please look over these solved cases?
COc1c2c(cc3c1C(CC(=O)Cc1ccc(Br)cc1)[N+](C)(C)CC3)OCO2 (stereo not drawn) ... 212.6
COc1ccc(OC)c(CCC(=O)CC2c3c(cc4c(c3OC)OCO4)CC[N+]2(C)C)c1 (stereo not drawn) ... 170.0

// COc1c2c(cc3c1C(CC(=O)/C=C/c1ccc(Cl)cc1)[N+](C)(C)CC3)OCO2 (stereo not drawn) : MOR agonist activity, percent [35S]GTPγS binding at the stated compound concentration value = 256.5

The measurements presented in this section are drawn from patent US10363239B2.
